Documented GI50 across a set of molecules
Test system: SF-268
Test summary: NCI tumour cell line growth inhibition, 48 h
Active and inactive are the calls of the source. No stated cut-off is given here; in the data, active = GI50 up to about 1.1 µM and inactive = higher.

The following molecules have reported results that may help.
INSERT INTO assay_data (molecule, value_observed) VALUES
  ('CC(C)(Cl)C(Br)CC/C(=C/CCl)CBr.CC(C)(Cl)C(Br)CC/C(=C\CCl)CBr (centres undefined)', '1.8 µM (inactive)'),
  ('COc1cc(S(=O)(=O)Nc2nc(-c3ccc(N4C(=O)/C(=C/c5ccccc5[N+](=O)[O-])N=C4c4ccccc4)cc3)cs2)ccc1Cl', '22.6 µM (inactive)'),
  ('CCOc1ccc(C2Oc3c(cccc3OC)C=C2[N+](=O)[O-])cc1OCC (centres undefined)', '11.6 µM (inactive)');

Next up:
Prompt: Returns the measured GI50 for the input molecule. Input: Cc1nc(Nc2ccc([N+](=O)[O-])cc2)sc1C(/C=C/c1ccc(N(C)C)cc1)=N/NC(=O)c1ccccc1
Response: 43 µM (inactive)

* * *

Test system: DMS-273
Test summary: NCI tumour cell line growth inhibition, 48 h
Calls of active or inactive are those of the source. Rule as the data show it: active = GI50 up to about 1.1 µM and inactive = higher.
Choose the fitting class; nothing outside y (active), n (inactive) is accepted.

Example entries and their recorded answers appear below.
INSERT INTO results (compound, tested_system, group_label) VALUES
  ('C/C(CN1C(=O)c2ccccc2C1=O)=N\NS(=O)(=O)c1cccc([N+](=O)[O-])c1', 'DMS-273', 'n'),
  ('CCOC(=O)c1[nH]c(COC(C)=O)c(CCCOC(C)=O)c1CCCOC(C)=O', 'DMS-273', 'n'),
  ('N#CC(C#N)=CSc1ccccc1', 'DMS-273', 'n'),
  ('O=C1O[C@H](c2ccccc2)[C@@H]2CC3(CCN12)OCCO3', 'DMS-273', 'n'),
  ('CCN(CC)CC(=O)O[C@]1(CC)C(=O)OCc2c1cc1n(c2=O)Cc2cc3ccccc3nc2-1', 'DMS-273', 'y'),
  ('COC1=CC(=O)[C@@]2(C)C(C)[C@H](c3ccccc3)[C@H]2C1=O (stereo not given in full)', 'DMS-273', 'n'),
  ('CCC1(C(=O)OC)CCc2c(OC)ccc(OC)c2C1=O (stereo not given)', 'DMS-273', 'n'),
  ('CC1(Br)S(=O)(=O)OCCOS1(=O)=O', 'DMS-273', 'n'),
  ('COc1cc(C(C)c2cc3c(cc2OCCOCCOc2cc4c(cc2C(C)c2cc(OC)c(OC)c(OC)c2)OCO4)OCO3)cc(OC)c1OC (stereo not given)', 'DMS-273', 'n'),
  ('O=[N+]([O-])c1ccc(/C=N/C23CC4CC(CC(C4)C2)C3)cc1', 'DMS-273', 'n');

Prompt: Give the logged outcome of this assay for the following compound: Cc1c(C(=O)C/C(=N/NC(=O)c2ccccc2O)C(=O)Nc2ccccc2C(C)C)[n+]([O-])c2ccccc2[n+]1[O-]
Response: n

Prompt: Give the logged outcome of this assay for the following compound: CC1=CC=C2C(C)(C)CC[C@@H]3OC(=O)[C@H]1[C@]23C
Response: n

Prompt: Give the logged outcome of this assay for the following compound: COc1cc(C)c(CC/C(C)=C/Cc2cc(O)ccc2O)c(C)c1C [PANICEIN A HYDROQUINONE]
Response: n

Prompt: Give the logged outcome of this assay for the following compound: O=C1C2C=CC(n3[nH]c(=O)n(Cc4ccccc4)c3=O)CC2C(=O)N1c1cccc(Cl)c1 (stereo not given)
Response: n

Prompt: Give the logged outcome of this assay for the following compound: CCCCCCCCCCC(=O)CCCCCCC(=O)O
Response: n

Prompt: Give the logged outcome of this assay for the following compound: CC(CCCOC(c1ccccc1)(c1ccccc1)c1ccccc1)OC(=O)Nc1ccccc1 (stereo not given)
Response: n

Prompt: Give the logged outcome of this assay for the following compound: O=c1c2ccccc2nc(-c2cccc(Cl)c2)n1NCC1(O)OCC(O)C(O)C1O (stereo not given)
Response: n

Prompt: Give the logged outcome of this assay for the following compound: Cc1c(/C=C2\CC/C(=C\c3[nH]c(C(=O)OC(C)(C)C)c(C)c3C)C2=O)[nH]c(C(=O)OC(C)(C)C)c1C
Response: n

Prompt: Give the logged outcome of this assay for the following compound: S=C=NCCc1ccccc1 [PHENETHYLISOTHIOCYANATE]
Response: y

Prompt: Give the logged outcome of this assay for the following compound: CCOC(=O)C[C@@]12CCCNC1(C)CCc1ccccc12 (stereo not given in full)
Response: n

* * *

Test system: HL-60
Test summary: NCI tumour cell line growth inhibition, 48 h
Calls of active or inactive are those of the source. No stated cut-off is given here; in the data, active = GI50 up to about 1.1 µM and inactive = higher.
Test readout: GI50

The following compounds have reported results that may help.
INSERT INTO measurements (compound, tested_system, value_observed) VALUES
  ('CC(=O)Oc1cc(C)c(OC(C)=O)c2c1[C@H]1CC[C@]3(C)[C@@H](OC(C)=O)CC[C@H]3[C@@H]1CC2', 'HL-60', '20 µM (inactive)'),
  ('CCOc1ccccc1/N=C\c1c2ccccc2cc2ccccc12', 'HL-60', '16 µM (inactive)'),
  ('COC1=CC(=O)[C@@]2(C)C(C)[C@H](c3ccccc3)[C@H]2C1=O (stereo partly drawn)', 'HL-60', '> 100 µM (inactive)'),
  ('CC(=O)O[C@@H]1C[C@@]23C[C@@]24CC[C@H](OC2OCC(O)C(O)C2O)C(C)(C)[C@@H]4CC=C3[C@]2(C)C[C@@H]3OC4(C[C@@H](C)[C@@H]3[C@@]12C)OC(O)[C@@]1(C)O[C@@H]41 (stereo partly drawn)', 'HL-60', '7.73 µM (inactive)'),
  ('CCOC(=O)CC(C)C1(C(=O)OCC)CCCCC1=O (stereo not drawn)', 'HL-60', '> 100 µM (inactive)'),
  ('COc1cc([C@@H]2c3cc4c(cc3[C@@H](NC(=O)c3ccc(OC(C)=O)cc3)C3COC(=O)[C@@H]32)OCO4)cc(OC)c1O (stereo partly drawn)', 'HL-60', '0.153 µM (active)'),
  ('Nc1nc(O)c2[nH]cnc2[n+]1[O-]', 'HL-60', '> 100 µM (inactive)'),
  ('COc1cc(C2c3cc4c(cc3[C@@H](Nc3cccc(CO)c3)C3COC(=O)[C@H]23)OCO4)cc(OC)c1O (stereo partly drawn)', 'HL-60', '< 0.0218 µM (active)');

Prompt: Returns the measured GI50 for the input compound. Input: O=C(C(=C(I)I)c1ccccc1)c1ccccc1
Response: 13.2 µM (inactive)

Prompt: Returns the measured GI50 for the input compound. Input: C[C@H]1C(OCCOC2O[C@@H]3O[C@@]4(C)CC[C@H]5[C@H](C)CCC([C@H]2C)[C@@]35O4)O[C@@H]2O[C@@]3(C)CC[C@H]4[C@H](C)CCC1[C@@]24O3 (stereo partly drawn)
Response: 24.9 µM (inactive)

* * *

System: A498
Test summary: NCI tumour cell line growth inhibition, 48 h
Active and inactive are the calls of the source. Rule as the data show it: active = GI50 up to about 1.1 µM and inactive = higher. Where a SMILES comes first, the peptide text is derived from it. [ ]: non-standard residue; d: D form. The star is where a group is joined. Phe(4-NO2) = N[CH](Cc1ccc([N+](=O)[O-])cc1)C(=O)O; Boc = CC(C)(C)OC(=O)*
Documented GI50 across a set of molecules

The following molecules have reported results that may help.
INSERT INTO assay_data (molecule, tested_system, value_observed) VALUES
  ('COC(=O)C1=C(O)CCCC(CCC(C)=O)=C1', 'A498', '> 100 µM (inactive)'),
  ('CCOC(=O)CCC(NC(=O)C(Cc1ccc([N+](=O)[O-])cc1)NC(=O)OC(C)(C)C)C(=O)NC(CCC(=O)OCC)C(=O)OCC (centres undefined) (Boc-[Phe(4-NO2)]-Glu(OEt)-Glu(OEt)-OEt; configuration not given here)', 'A498', '19.5 µM (inactive)'),
  ('C1CN(C23OC4(N5CCOCC5)C5C6CC(C7C6C4C72)C53)CCO1 (centres undefined)', 'A498', '> 100 µM (inactive)');

Next up:
Prompt: Returns the measured GI50 for the input molecule. Input: Nc1ccc(Oc2ccc(C3(c4ccc(Oc5ccc(N)c(O)c5)cc4)C4CC5C6CC7CC5C3C(C7)C6C4)cc2)cc1O
Response: 2.55 µM (inactive)

* * *

Test system: RPMI-8226
Test summary: NCI tumour cell line growth inhibition, 48 h
Active and inactive are the calls of the source. Cut-off read from the data, not from the text of the source: active = GI50 up to about 1.1 µM and inactive = higher.
Choose the fitting class; nothing outside label 1 = active, label 0 = inactive is accepted.

Prompt: Give the logged outcome of this assay for the following molecule: COC(=O)C1CC2CCC1(O[Si](C(C)C)(C(C)C)C(C)C)C(O)C2 (configuration not stated)
Response: label 0

* * *

Tested on: UO-31
Test summary: NCI tumour cell line growth inhibition, 48 h
The source made the active and inactive calls. No stated cut-off is given here; in the data, active = GI50 up to about 1.1 µM and inactive = higher.
Choose the fitting class; nothing outside active, inactive is accepted.

INSERT INTO assay_data (molecule, group_label) VALUES
  ('O=C1C(Cl)C2(CC(/C=C/c3cccs3)=NN2c2cccc(S(=O)(=O)O)c2)N1c1nc2ccccc2s1 (stereo not given)', 'inactive'),
  ('CC1(C)C2CCC1C(=O)[C@@]1(C=CC(=O)CC1)C2 (stereo not given in full)', 'inactive'),
  ('N=C1NC(=O)N2CC12 (stereo not given) [IMEXON]', 'inactive'),
  ('CC(C)C1=C(O)C(=O)C2=C(C1=O)C(OC=O)C(O)C1C(C)(C)CCCC21C (stereo not given)', 'inactive');

# ---- query molecule ----
Prompt: Give the logged outcome of this assay for the following molecule: C[C@]12CC[C@H](O)C[C@H]1CC[C@@H]1[C@@H]2CC[C@]2(C)[C@@H](C3=CC(=O)OC3)[C@@H](O)C[C@]12O
Response: active

Hello, the source for this data is ChEMBL document CHEMBL1201862, in case you need it.
